All values here come from patent EP0403366A2.

- protocolSummary: physchem
- setupConditions: water

[
  {
    "compound": "Cc1cccc(N(C)C(=S)Oc2ccc3ccccc3c2)c1 [Tolnaftate]",
    "solubility / mg/mL": 0.012
  },
  {
    "compound": "OC[C@H]1O[C@@H](SC[C@H]2O[C@@H]3O[C@H]4[C@H](O)[C@@H](O)[C@@H](O[C@H]5[C@H](O)[C@@H](O)[C@@H](O[C@H]6[C@H](O)[C@@H](O)[C@@H](O[C@H]7[C@H](O)[C@@H](O)[C@@H](O[C@H]8[C@H](O)[C@@H](O)[C@@H](O[C@H]9[C@H](O)[C@@H](O)[C@@H](O[C@H]2[C@H](O)[C@H]3O)O[C@@H]9CO)O[C@@H]8CO)O[C@@H]7CO)O[C@@H]6CO)O[C@@H]5CO)O[C@@H]4CO)[C@H](O)[C@@H](O)[C@@H]1O [Composé 2]",
    "solubility / mg/mL": 30
  },
  {
    "compound": "OC[C@H]1O[C@H](SC[C@H]2O[C@@H]3O[C@H]4[C@H](O)[C@@H](O)[C@@H](O[C@H]5[C@H](O)[C@@H](O)[C@@H](O[C@H]6[C@H](O)[C@@H](O)[C@@H](O[C@H]7[C@H](O)[C@@H](O)[C@@H](O[C@H]8[C@H](O)[C@@H](O)[C@@H](O[C@H]9[C@H](O)[C@@H](O)[C@@H](O[C@H]2[C@H](O)[C@H]3O)O[C@@H]9CO)O[C@@H]8CO)O[C@@H]7CO)O[C@@H]6CO)O[C@@H]5CO)O[C@@H]4CO)[C@H](O)[C@@H](O)[C@@H]1O [Composé 1]",
    "solubility / mg/mL": 430
  }
]
